Assay: Binding affinity for Poly (dA-dT) measured as change in melting temperature
For each entry below, report its ΔTm value.
# output: bare number, implied unit °C

Let me know recorded ΔTm for CC(C)(C)/N=C(\N)c1ccc(N2CCCN(c3ccc(/C(N)=N/C(C)(C)C)cc3)CC2)cc1 , thanks.
7.4

Let me know recorded ΔTm for N=C(NC1CCCC1)c1ccc(N2CCCN(c3ccc(C(=N)NC4CCCC4)cc3)CC2)cc1 , thanks.
26.5

Let me know recorded ΔTm for N=C(NCCCO)c1ccc(N2CCCN(c3ccc(/C(N)=N/CCCO)cc3)CC2)cc1 , thanks.
23.6

Let me know recorded ΔTm for N=C(N)c1ccc(OCCCCCOc2ccc(C(=N)N)cc2)cc1 , thanks.
20.6

Let me know recorded ΔTm for N=C(N)c1ccc(N2CCCN(c3ccc(C(=N)N)cc3)CC2)cc1 , thanks.
23.1

Let me know recorded ΔTm for N=C(NC1CC1)c1ccc(N2CCCN(c3ccc(C(=N)NC4CC4)cc3)CC2)cc1 , thanks.
23.6

Let me know recorded ΔTm for N=C(NCCO)c1ccc(N2CCCN(c3ccc(/C(N)=N/CCO)cc3)CC2)cc1 , thanks.
14.7

Let me know recorded ΔTm for CCCCNC(=N)c1ccc(N2CCCN(c3ccc(C(=N)NCCCC)cc3)CC2)cc1 , thanks.
13.3

Let me know recorded ΔTm for CC(C)/N=C(\N)c1ccc(N2CCCN(c3ccc(/C(N)=N/C(C)C)cc3)CC2)cc1 , thanks.
20

Let me know recorded ΔTm for c1cc(N2CCCN(c3ccc(C4=NCCCN4)cc3)CC2)ccc1C1=NCCCN1 , thanks.
21.3

###

Tested on: Pneumocystis carinii
Assay: Percent of control growth of Pneumocystis carinii trophozoites was determined
Type: functional
Design: concentration or dose not given beside the values
Cut-off 60% on Growth: below means Condition met, at or above means Condition not met.

Does the reported Growth of the following molecule sit strictly below 60%? N=C(NCCCO)c1ccc(N2CCCN(c3ccc(/C(N)=N/CCCO)cc3)CC2)cc1
Condition not met

Does the reported Growth of the following molecule sit strictly below 60%? N=C(N)c1ccc(OCCCCCOc2ccc(C(=N)N)cc2)cc1
Condition met

Does the reported Growth of the following molecule sit strictly below 60%? N=C(NCCO)c1ccc(N2CCCN(c3ccc(/C(N)=N/CCO)cc3)CC2)cc1
Condition not met

Does the reported Growth of the following molecule sit strictly below 60%? CCCCNC(=N)c1ccc(N2CCCN(c3ccc(C(=N)NCCCC)cc3)CC2)cc1
Condition met

Does the reported Growth of the following molecule sit strictly below 60%? CC(C)(C)/N=C(\N)c1ccc(N2CCCN(c3ccc(/C(N)=N/C(C)(C)C)cc3)CC2)cc1
Condition not met

Does the reported Growth of the following molecule sit strictly below 60%? c1cc(N2CCCN(c3ccc(C4=NCCCN4)cc3)CC2)ccc1C1=NCCCN1
Condition met

###

Tested on: Nucleic Acid
Assay: Binding affinity for calf thymus DNA measured as change in melting temperature
Type: nucleic-acid assay
Settings: Bos taurus
MEASURED ATTRIBUTE: ΔTm

Let me know recorded ΔTm for CCCCNC(=N)c1ccc(N2CCCN(c3ccc(C(=N)NCCCC)cc3)CC2)cc1 , thanks.
11.8 °C

Let me know recorded ΔTm for N=C(NCCCO)c1ccc(N2CCCN(c3ccc(/C(N)=N/CCCO)cc3)CC2)cc1 , thanks.
17.4 °C

Let me know recorded ΔTm for c1cc(N2CCCN(c3ccc(C4=NCCCN4)cc3)CC2)ccc1C1=NCCCN1 , thanks.
15.5 °C

Let me know recorded ΔTm for N=C(N)c1ccc(OCCCCCOc2ccc(C(=N)N)cc2)cc1 , thanks.
11.1 °C

Let me know recorded ΔTm for N=C(NC1CC1)c1ccc(N2CCCN(c3ccc(C(=N)NC4CC4)cc3)CC2)cc1 , thanks.
15.3 °C

Let me know recorded ΔTm for CC(C)(C)/N=C(\N)c1ccc(N2CCCN(c3ccc(/C(N)=N/C(C)(C)C)cc3)CC2)cc1 , thanks.
4.1 °C

Let me know recorded ΔTm for N=C(NC1CCCC1)c1ccc(N2CCCN(c3ccc(C(=N)NC4CCCC4)cc3)CC2)cc1 , thanks.
17.9 °C

Let me know recorded ΔTm for N=C(NCCO)c1ccc(N2CCCN(c3ccc(/C(N)=N/CCO)cc3)CC2)cc1 , thanks.
11.1 °C

Let me know recorded ΔTm for N=C(N)c1ccc(N2CCCN(c3ccc(C(=N)N)cc3)CC2)cc1 , thanks.
15 °C

Let me know recorded ΔTm for CC(C)/N=C(\N)c1ccc(N2CCCN(c3ccc(/C(N)=N/C(C)C)cc3)CC2)cc1 , thanks.
13.8 °C
